Data provenance: the supplement of paper PMC6658780

- Tested on: Escherichia coli ATCC BAA-2469
- experiment: percent growth inhibition of drug + antibiotic vs DMSO control; higher = more growth inhibition
- reported.conditions: antibiotic (0.125x MIC): ciprofloxacin; 7 µM
Counter-ions that a name gives are not always drawn.
# maps each entry to its percent growth inhibition
Respond with the bare value in %.

Using known records, supply percent growth inhibition for Cc1nnc(NS(=O)(=O)c2ccc(N)cc2)s1
9.62

Using known records, supply percent growth inhibition for O=c1[nH]c(=O)n([C@H]2C[C@H](O)[C@@H](CO)O2)cc1C(F)(F)F
4.99

Using known records, supply percent growth inhibition for O=C1c2c(O)ccc(O)c2C(=O)c2c(NCCNCCO)ccc(NCCNCCO)c21 [Mitoxantrone dihydrochloride]
6.59

Using known records, supply percent growth inhibition for O=C1NCCN1c1ncc([N+](=O)[O-])s1
45

Using known records, supply percent growth inhibition for OC(CCN1CCCC1)(c1ccccc1)C1CCCCC1 (configuration not stated) [Procyclidine hydrochloride]
10.9

Using known records, supply percent growth inhibition for CS(=O)(=O)c1ccc([C@@H](O)[C@@H](CF)NC(=O)C(Cl)Cl)cc1
35.4
